- measurement.target: Estrogen receptor (Homo sapiens) (UniProt P03372)
- Sequence (P03372 whole entry, looked up): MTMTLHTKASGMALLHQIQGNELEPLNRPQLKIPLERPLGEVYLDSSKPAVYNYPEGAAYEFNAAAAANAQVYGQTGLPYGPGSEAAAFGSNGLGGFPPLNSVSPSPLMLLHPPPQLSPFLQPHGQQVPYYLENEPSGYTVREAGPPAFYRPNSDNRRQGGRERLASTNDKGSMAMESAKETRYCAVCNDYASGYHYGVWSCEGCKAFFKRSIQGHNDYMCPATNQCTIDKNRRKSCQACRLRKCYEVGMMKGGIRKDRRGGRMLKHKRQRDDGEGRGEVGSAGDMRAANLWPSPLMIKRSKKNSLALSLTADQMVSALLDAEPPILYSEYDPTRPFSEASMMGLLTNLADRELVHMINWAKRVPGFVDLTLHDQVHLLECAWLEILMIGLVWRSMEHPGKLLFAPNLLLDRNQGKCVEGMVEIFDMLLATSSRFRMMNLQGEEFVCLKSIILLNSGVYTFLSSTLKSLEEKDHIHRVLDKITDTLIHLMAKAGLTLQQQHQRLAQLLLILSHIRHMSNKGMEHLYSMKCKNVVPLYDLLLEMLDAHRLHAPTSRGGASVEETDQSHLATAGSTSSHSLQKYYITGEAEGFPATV
- measurement.notes: qHTS assay to identify small molecule agonists of the estrogen receptor alpha (ER-alpha) signaling pathway using the BG1 cell line (AID 743079); also: nearly all actives have a fitted effect of over 20% in size; as to activation: % is scaled to controls: 0 for no effect and ±100 for the full control effect
- assay.context: BG1Luc4E2 cells, ERE-luciferase agonist, 22 h
Records with an inconclusive call do not appear. The source made the active and inactive calls. Calls follow the shape of the dose curve; as a rule, active = well fitted activation curve with a large enough effect in the repeat runs; inconclusive = weak or mixed curves, or effect the other way; inactive = no such curve, though single readings can be large or run the other way.
Classes used: active, inactive

                                   compound                        measurement_target     class
0    c1cc[c]([Bi]([c]2ccccc2)[c]2ccccc2)cc1  Estrogen receptor (Homo sapiens) (UniProt P03372)    active
1                O=C(O)Cc1ccc(-c2ccccc2)cc1  Estrogen receptor (Homo sapiens) (UniProt P03372)  inactive
2        CN(C)CCOC1=Cc2ccccc2Sc2ccc(Cl)cc21  Estrogen receptor (Homo sapiens) (UniProt P03372)  inactive
3                        C/C=C/C=C/CCCCCCCO  Estrogen receptor (Homo sapiens) (UniProt P03372)  inactive
4                        CC(=O)Nc1ccc(N)cc1  Estrogen receptor (Homo sapiens) (UniProt P03372)  inactive
5  CCCCC(CC)C(=O)OCCOCCOCCOCCOC(=O)C(CC)CCCC (configuration not stated)  Estrogen receptor (Homo sapiens) (UniProt P03372)  inactive
6  COc1cc2c(N3CCN(C(=O)Nc4ccc(OC(C)C)cc4)CC3)ncnc2cc1OCCCN1CCCCC1  Estrogen receptor (Homo sapiens) (UniProt P03372)  inactive

###

- measurement.notes: qHTS assay to test for compound auto fluorescence at 460 nm (blue) in HepG2 cells (AID 720687); also: % is scaled to controls: 0 for no effect and ±100 for the full control effect
- assay.context: autofluorescence 405/460 nm, 1 h; series mostly up to 91.3 µM
Activity calls are given as the source filed them. Calls come from the whole dose curve; as a rule, active = well fitted curve in the direction sought with a large enough effect in the repeat runs; inconclusive = weak or mixed curves; inactive = flat fitted curve, though single readings scatter.

compound	fluorescence, % of fluorescent control
CO[C@H]1C=CO[C@@]2(C)Oc3c(C)c(O)c4c(O)c(c5c(c4c3C2=O)=NC2(CCN(CC(C)C)CC2)N=5)NC(=O)/C(C)=C\C=C/[C@H](C)[C@H](O)[C@@H](C)[C@@H](O)[C@@H](C)[C@H](OC(C)=O)[C@@H]1C	inactive
CCC1(C)CC(=O)NC1=O (centres undefined)	inactive
CNC(=O)N(c1ccccc1)c1ccccc1	inactive
C/C=C/C=C/CCCCCCCO	inactive
CCC(C)=O	inactive
CCCCC1C(=O)N(c2ccccc2)N(c2ccc(O)cc2)C1=O (centres undefined)	-0.0848% [at 18.6 µM] (inactive)
COc1ccc(CCC(=O)c2c(O)cc(O[C@@H]3O[C@H](CO)[C@@H](O)[C@H](O)[C@H]3O[C@@H]3O[C@@H](C)[C@H](O)[C@@H](O)[C@H]3O)cc2O)cc1O	inactive
O=C1NCCN1	inactive
CCC(C(=O)OCCOCCN(CC)CC)c1ccccc1 (centres undefined)	inactive
[O]=[Bi]	-0.0256% [at 3.72 µM] (inactive)
Cc1cc(S(=O)(=O)O)ccc1N=Nc1c(O)ccc2ccccc12	inactive
O=C(O)c1ccc(CO)o1	inactive
CCCOC(=O)c1ccc(N)cc1	inactive
CN(C(=O)C(Cl)Cl)c1ccc(OC(=O)c2ccco2)cc1	inactive
CC(=O)OCC(=O)[C@H]1CC[C@H]2[C@@H]3CCC4=CC(=O)CC[C@]4(C)[C@H]3CC[C@]12C	inactive
O=C(O)C(Cc1cc(I)c(O)c(I)c1)c1ccccc1 (centres undefined)	inactive
CC1(C)C2=CCCC(C)(C)[C@]23CC[C@H]1C3	inactive
CC1=NN(c2ccc(C(=O)O)cc2)C(=O)C1	inactive
CC(C)(C)C(=O)C(Oc1ccc(Cl)cc1)n1ccnc1 (centres undefined)	inactive
